Tested on: Zebrafish (Danio rerio)
Assay: Open tank test in zebrafish exposed to MK-801
Type: in vivo
Conditions: immediately after social interaction test, 10 min
Structures can show the parent of a compound that is named as a salt.
quantity measured: Open Tank Test: Absolute turn angle

[
  {
    "molecule": "COC(=O)C1=CO[C@@H](C)[C@@H]2Cn3ccc4c5ccccc5nc-4c3C[C@H]12 [alstonine hydrochloride]",
    "subject of test": "Zebrafish (Danio rerio)",
    "quantity measured": "Open Tank Test: Absolute turn angle",
    "endpoint result": "N.E.^1"
  },
  {
    "molecule": "COC(=O)C1=CO[C@@H](C)[C@H]2C[n+]3ccc4c([nH]c5ccccc54)c3C[C@H]12.[Br-] [alstonine hydrobromide]",
    "subject of test": "Zebrafish (Danio rerio)",
    "quantity measured": "Open Tank Test: Absolute turn angle",
    "endpoint result": "N.E.^1"
  },
  {
    "molecule": "Cc1cc2c(s1)Nc1ccccc1N=C2N1CCN(C)CC1 [olanzapine, reference compound]",
    "subject of test": "Zebrafish (Danio rerio)",
    "quantity measured": "Open Tank Test: Absolute turn angle",
    "endpoint result": "N.E.^1"
  },
  {
    "molecule": "C[C@]12N[C@H](Cc3ccccc31)c1ccccc12 [MK-801, dizocilpine, reference compound]",
    "subject of test": "Zebrafish (Danio rerio)",
    "quantity measured": "Open Tank Test: Absolute turn angle",
    "endpoint result": "↓"
  }
]
